Data provenance: patent EP1856102B1

This section presents compounds with their documented % Inhibition of experimental arthritis values.
Tested on: FCA-induced experimental arthritis in rats
Assay: Adjuvant-induced disease (FCA-induced experimental arthritis)
Type: in vivo, female Fischer-344 rats
Settings: 0.3-0.6 mmol/kg i.p. once daily for 14 days; in comparison to non treated AID rats
State the answer as a number, implicitly in %.

Some solved cases for reference:
In [3]: df
Out[3]:
                                   compound  unit_name  endpoint_value
0  COc1ccc2c(c1)c(CC(=O)N1CCCC1C(=O)NCCS)c(C)n2C(=O)c1ccc(Cl)cc1 (stereo not shown) [Compound 1]          %              50
1  COc1ccc2cc(C(C)C(=O)N3CCCC3C(=O)NCCS)ccc2c1 (stereo not shown) [Compound 4]          %              30
2  CCOC(=O)C(CS)NC(=O)C1CCCN1C(=O)C(C)c1ccc2cc(OC)ccc2c1 (stereo not shown) [Compound 5]          %             100

Now for the compound whose % Inhibition of experimental arthritis we want.
stdin: Which % Inhibition of experimental arthritis is listed for CCOC(=O)C(CS)NC(=O)C1CCCN1C(=O)Cc1c(C)n(C(=O)c2ccc(Cl)cc2)c2ccc(OC)cc12 (stereo not shown) [Compound 2] ?
stdout: 75

###

This section presents compounds with their documented Mortality (%) values.
System: female Fischer-344 rats
Settings: (dead/total) x 100; s.c. once daily for 4 days, recorded 24 h after last treatment; dose 84 µM/kg (Indomethacin, 1, 2, 3) or 1350 µM/kg (Naproxen, 4, 5)
State the answer as a number, implicitly in %.

stdin: Which Mortality (%) is listed for CCOC(=O)C(CS)NC(=O)C1CCCN1C(=O)Cc1c(C)n(C(=O)c2ccc(Cl)cc2)c2ccc(OC)cc12 (stereo not drawn) ?
stdout: 0

stdin: Which Mortality (%) is listed for COc1ccc2c(c1)c(CC(=O)N1CCCC1C(=O)NCCS)c(C)n2C(=O)c1ccc(Cl)cc1 (stereo not drawn) ?
stdout: 0

stdin: Which Mortality (%) is listed for COc1ccc2c(c1)c(CC(=O)N1CCCC1C(=O)Oc1ccc(C)cc1OC)c(C)n2C(=O)c1ccc(Cl)cc1 (stereo not drawn) ?
stdout: 0

stdin: Which Mortality (%) is listed for CCOC(=O)C(CS)NC(=O)C1CCCN1C(=O)C(C)c1ccc2cc(OC)ccc2c1 (stereo not drawn) ?
stdout: 0

stdin: Which Mortality (%) is listed for COc1ccc2c(c1)c(CC(=O)O)c(C)n2C(=O)c1ccc(Cl)cc1 [Indomethacin, reference compound] ?
stdout: 50

stdin: Which Mortality (%) is listed for COc1ccc2cc([C@H](C)C(=O)O)ccc2c1 [Naproxen, reference compound] ?
stdout: 50

###

System: lipid peroxidation of hepatic microsomal fraction
Assay: In vitro lipid peroxidation (TBA reactive material)
Format: biochemical, Fischer-344 rats
Conditions: at 45 min, 37°C; heat inactivated rat hepatic microsomal fraction, FeSO4/ascorbic acid
Procedure: Hepatic microsomal fraction from untreated Fischer-344 rats was prepared. […] Lipid peroxidation was assessed spectrophotometrically (535 against 600 nm) by the determination of the TBA reactive material. […]
This section presents compounds with their documented pIC50 values.
Remember, pIC50 is on a log scale: it is -log10 of the molar concentration.

>>> print(df.to_string())
                                   compound  endpoint_value
0  CCOC(=O)C(CS)NC(=O)C1CCCN1C(=O)Cc1c(C)n(C(=O)c2ccc(Cl)cc2)c2ccc(OC)cc12 (stereo not shown)            3.41
1  CCOC(=O)C(CS)NC(=O)C1CC(O)CN1C(=O)C(C)c1ccc2cc(OC)ccc2c1 (stereo not shown)            3.30
2  CCOC(=O)C(CS)NC(=O)C1CCCCN1C(=O)C(C)c1ccc2cc(OC)ccc2c1 (stereo not shown)            3.91

stdin: Which pIC50 is listed for CCOC(=O)C(CS)NC(=O)C1CCCN1C(=O)C(C)c1ccc2cc(OC)ccc2c1 (stereo not shown) ?
stdout: 3.49

###

This section presents compounds with their documented Body weight change values.
System: female Fischer-344 rats
Details: s.c. once daily for 4 days; dose 84 µM/kg (Indomethacin, 1, 2, 3) or 1350 µM/kg (Naproxen, 4, 5)

>>> print(df.to_string())
                                   compound           endpoint_value
0  COc1ccc2c(c1)c(CC(=O)N1CCCC1C(=O)Oc1ccc(C)cc1OC)c(C)n2C(=O)c1ccc(Cl)cc1 (stereo not shown)  +11.1 g/100 body weight
1  COc1ccc2c(c1)c(CC(=O)N1CCCC1C(=O)NCCS)c(C)n2C(=O)c1ccc(Cl)cc1 (stereo not shown)   +1.3 g/100 body weight
2  CCOC(=O)C(CS)NC(=O)C1CCCN1C(=O)Cc1c(C)n(C(=O)c2ccc(Cl)cc2)c2ccc(OC)cc12 (stereo not shown)   +3.9 g/100 body weight

Now for the compound whose Body weight change we want.
stdin: Which Body weight change is listed for CCOC(=O)C(CS)NC(=O)C1CCCN1C(=O)C(C)c1ccc2cc(OC)ccc2c1 (stereo not shown) ?
stdout: +1.5 g/100 body weight

###

Test system: tyloxapol-induced hyperlipidemia
Test: Tyloxapol-induced hyperlipidemia in rats
Type: in vivo
Settings: plasma LDL-cholesterol; 56µmol/kg i.p. once, 24 h later; tyloxapol 200 mg/kg i.p.
Marks after values point to notes of the source that are not given here.
value type: % decrease LDL

Some solved cases for reference:
In [3]: df
Out[3]:
                                   compound  endpoint_value
0  CCOC(=O)C(CS)NC(=O)C1CCCN1C(=O)C(C)c1ccc2cc(OC)ccc2c1 (stereo not shown) [Compound 5]           55* %
1  CCOC(=O)C(CS)NC(=O)C1CCCCN1C(=O)C(C)c1ccc2cc(OC)ccc2c1 (stereo not shown) [Compound 9]           52* %
2  COc1ccc2cc(C(C)C(=O)N3CC(O)CC3C(=O)NCCS)ccc2c1 (stereo not shown) [Compound 7]        53.5 * %

Now for the compound whose % decrease LDL we want.
stdin: Which % decrease LDL is listed for CCOC(=O)C(CS)NC(=O)C1CC(O)CN1C(=O)C(C)c1ccc2cc(OC)ccc2c1 (stereo not shown) [Compound 8] ?
stdout: 56.5* %
